- Test system: SK-OV-3 ovarian
- Test: NCI tumour cell line growth inhibition, 48 h
The reader will find reported TGI values listed item by item below.

Reference set (8 entries):
{"Molecule": "COc1ccc(/C=C/c2onc3c(=O)n(C)nc(-c4ccccc4)c23)cc1", "Property Name": "TGI", "Reported": "> 100 µM"}
{"Molecule": "NC1CCN(c2nc3ccccc3c3c2CCCC3)CC1", "Property Name": "TGI", "Reported": "27.1 µM"}
{"Molecule": "Cn1cnc([N+](=O)[O-])c1S(=O)(=O)Oc1ccc(Cl)cc1", "Property Name": "TGI", "Reported": "> 100 µM"}
{"Molecule": "CCOc1ccc(N(CC(=O)N2CC(=O)Nc3cc(C)c(C)cc32)C(C)=O)cc1", "Property Name": "TGI", "Reported": "> 100 µM"}
{"Molecule": "CC(=O)C1C(=O)C(=O)N(c2ccc([N+](=O)[O-])cc2[N+](=O)[O-])C1=O (stereo not given)", "Property Name": "TGI", "Reported": "> 100 µM"}
{"Molecule": "N#CC(O)CCOCc1ccccc1 (stereo not given)", "Property Name": "TGI", "Reported": "> 100 µM"}
{"Molecule": "CCN1/C(=C/C(C)=C/c2sc3ccc4ccccc4c3[n+]2CC)Sc2ccc3ccccc3c21", "Property Name": "TGI", "Reported": "0.78 µM"}
{"Molecule": "CC1(C)CN(CC(=O)O)CC(Cc2ccc(OCC(=O)O)cc2)N(CC(=O)O)CC(C)(C)SS1 (stereo not given)", "Property Name": "TGI", "Reported": "> 100 µM"}

Query: Which TGI reading was recorded for the molecule COCN1C(=O)[C@@H]2C[C@@H](O)CN2C(=O)c2ccccc21 ?
Reply: > 100 µM

Query: Which TGI reading was recorded for the molecule Cc1n[nH]c(=O)n1C1CC1 ?
Reply: > 100 µM
